Data credit: patent US20140308287A1

Record form. Attribute: pEC50. Fill in for each entry.
target: T1, human ErbB3-Fc (R&D Systems) (human, UniProt P21860 20-643); experiment: ELISA on ErbB3-Fc, soluble monovalent Sab (Example 42)
T1 construct: Bought protein; also called wild-type ErbB3-Fc fusion; immobilized ErbB3; not shown: Fc part of the bought fusion protein; not described
Answers are plain numbers, as −log10 of the molar value.

Field: example entries. Status: answers known.
BINDER	MEASUREMENT
2995-A02 (other, copies: 1 + 1) VH: EVQLLESGGGLVQPGGSLRLSCAASGFTFSSYWMNWVRQAPGKGLEWVALISNGGGIKYYADSVKGRFTISRDNSKNTLYLQMNSLRAEDTAVYYCAKDNFILLNSWFDYWGQGTLVTVSS light: QPVLHQPPAMSSALGTTIRLTCTLRNDHDIGVYSVYWYQQRPGHPPRFLLRYFSQSDKSQGPQVPPRFSGSKDVARNRGYLSISELQPEDEAMYYCAMGARSSVTHVFGSGTQLTVLSQPKATPSVTLFPPSSEELQANKATLVCLMNDFYPGILTVTWKADGTPITQGVEMTTPSKQSNNKYAASSYLSLTPEQWRSRRSYSCQVMHEGSTVEKTVAPAECS	10.74
2995-B10 (other, copies: 1 + 1) VH: EVQLLESGGGLVQPGGSLRLSCAASGFTFSSYWMHWVRQAPGKGLEWVAAISAGSGYIYYADSVKGRFTISRDNSKNTLYLQMNSLRAEDTAVYYCAKDNFILLNSWFDYWGQGTLVTVSS surrogate light: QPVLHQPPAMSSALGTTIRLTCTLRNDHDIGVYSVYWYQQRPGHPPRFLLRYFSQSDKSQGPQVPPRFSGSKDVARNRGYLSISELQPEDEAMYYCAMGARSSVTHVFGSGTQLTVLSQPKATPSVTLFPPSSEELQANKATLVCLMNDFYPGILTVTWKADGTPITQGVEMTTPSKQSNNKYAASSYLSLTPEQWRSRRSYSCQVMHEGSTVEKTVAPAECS	10.49
2995-A01 (other) VH: EVQLLESGGGLVQPGGSLRLSCAASGFTFSSYWMHWVRQAPGKGLEWVAAISSSGTYTYYADSVKGRFTISRDNSKNTLYLQMNSLRAEDTAVYYCAKDNFILLNSWFDYWGQGTLVTVSS light: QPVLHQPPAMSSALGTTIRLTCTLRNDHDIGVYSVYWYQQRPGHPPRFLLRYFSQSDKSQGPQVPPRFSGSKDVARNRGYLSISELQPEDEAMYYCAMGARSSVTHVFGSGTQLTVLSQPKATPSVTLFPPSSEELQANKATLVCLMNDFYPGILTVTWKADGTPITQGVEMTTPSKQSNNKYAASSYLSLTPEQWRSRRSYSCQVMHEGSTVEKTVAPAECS	10.15
2995-H11 (other) VH: EVQLLESGGGLVQPGGSLRLSCAASGFTFSDYWMHWVRQAPGKGLEWVSAISSSGGYKYYADSVKGRFTISRDNSKNTLYLQMNSLRAEDTAVYYCAKDNFILLNSWFDYWGQGTLVTVSS light: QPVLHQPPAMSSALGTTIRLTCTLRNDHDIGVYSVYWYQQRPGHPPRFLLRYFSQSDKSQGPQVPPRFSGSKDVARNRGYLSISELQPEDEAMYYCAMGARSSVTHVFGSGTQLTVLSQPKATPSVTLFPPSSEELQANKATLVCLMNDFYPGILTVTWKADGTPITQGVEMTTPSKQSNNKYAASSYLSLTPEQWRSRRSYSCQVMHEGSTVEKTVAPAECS	10.20

Give one value of pEC50 per listed binder.
1. 2995-H09 (other) VH: EVQLLESGGGLVQPGGSLRLSCAASGFTFSNYWMHWVRQAPGKGLEWVASISNGGRYIYYADSVKGRFTISRDNSKNTLYLQMNSLRAEDTAVYYCAKDNFILLNSWFDYWGQGTLVTVSS light: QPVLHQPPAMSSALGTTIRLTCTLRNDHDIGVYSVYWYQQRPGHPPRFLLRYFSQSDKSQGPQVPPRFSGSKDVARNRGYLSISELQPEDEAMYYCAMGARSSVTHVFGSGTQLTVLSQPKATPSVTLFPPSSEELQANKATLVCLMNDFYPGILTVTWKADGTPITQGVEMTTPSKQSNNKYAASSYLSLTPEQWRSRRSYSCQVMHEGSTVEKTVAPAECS
2. 2995-C03 (other, copies: 1 + 1) VH: EVQLLESGGGLVQPGGSLRLSCAASGFTFSSYWMHWVRQAPGKGLEWVAGISGGGRYTYYADSVKGRFTISRDNSKNTLYLQMNSLRAEDTAVYYCAKDNFILLNSWFDYWGQGTLVTVSS surrogate light: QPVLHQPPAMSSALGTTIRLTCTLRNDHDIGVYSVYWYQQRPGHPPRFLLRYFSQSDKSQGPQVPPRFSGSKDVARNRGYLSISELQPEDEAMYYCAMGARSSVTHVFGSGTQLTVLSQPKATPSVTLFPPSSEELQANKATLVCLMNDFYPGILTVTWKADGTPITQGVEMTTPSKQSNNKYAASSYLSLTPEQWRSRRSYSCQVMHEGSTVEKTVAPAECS
3. 2995-G10 (other) VH: EVQLLESGGGLVQPGGSLRLSCAASGFTFSDYWMNWVRQAPGKGLEWVANISNGGTYIYYADSVKGRFTISRDNSKNTLYLQMNSLRAEDTAVYYCAKDNFILLNSWFDYWGQGTLVTVSS light: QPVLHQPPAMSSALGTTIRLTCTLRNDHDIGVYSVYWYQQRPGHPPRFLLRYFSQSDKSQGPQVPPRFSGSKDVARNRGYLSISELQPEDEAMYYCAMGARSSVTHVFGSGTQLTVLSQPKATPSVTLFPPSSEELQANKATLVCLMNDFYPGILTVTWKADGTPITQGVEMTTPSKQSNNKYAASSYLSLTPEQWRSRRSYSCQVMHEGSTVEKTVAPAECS
4. 2995-B02 (other, copies: 1 + 1) VH: EVQLLESGGGLVQPGGSLRLSCAASGFTFSDYWMHWVRQAPGKGLEWVAVISSNGRYTYYADSVKGRFTISRDNSKNTLYLQMNSLRAEDTAVYYCAKDNFILLNSWFDYWGQGTLVTVSS light: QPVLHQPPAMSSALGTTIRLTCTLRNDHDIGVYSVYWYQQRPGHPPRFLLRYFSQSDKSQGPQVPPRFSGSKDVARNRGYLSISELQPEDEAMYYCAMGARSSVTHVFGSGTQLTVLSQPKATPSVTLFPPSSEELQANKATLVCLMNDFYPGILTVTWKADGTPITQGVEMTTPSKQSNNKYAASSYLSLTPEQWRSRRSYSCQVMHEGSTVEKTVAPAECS

[10.70, 10.57, 10.66, 10.80]
